System: DU-145
protocol_details: Antiproliferative activity against human DU-145 cells assessed as cell growth inhibition at 25 uM incubated for 72 hrs by MTT assay relative to control
Assay type: functional
Give inhibition at 25 µM for every item shown.
Give bare numbers, in %.

Solved entries:
O=C(O)c1cccc(C2NC(=O)c3ccccc3N2)c1 (configuration not stated) : 31
O=C1NC(/C=C/c2ccco2)Nc2ccccc21 (configuration not stated) : 100
O=C1NC(c2cccc([N+](=O)[O-])c2)Nc2ccccc21 (configuration not stated) : 33
N#Cc1cccc(C2NC(=O)c3ccccc3N2)c1 (configuration not stated) : 26
COC(=O)c1cccc(/C=C/c2nc3ccccc3c(=O)[nH]2)c1 : 32
O=C1NC(C2CCCC2)Nc2ccccc21 (configuration not stated) : 22
O=C1NC(c2cccs2)Nc2ccccc21 (configuration not stated) : 57
O=C1NC(c2ccccc2[N+](=O)[O-])Nc2ccccc21 (configuration not stated) : 27
CCCC/C=C/c1nc2ccccc2c(=O)[nH]1 : 26
O=c1[nH]c(-c2ccccc2Br)nc2ccccc12 : 25

# return inhibition at 25 µM for each item in the list
1. N#Cc1ccc(C2NC(=O)c3ccccc3N2)cc1 (configuration not stated)
2. O=C1NC(c2cccc(O)c2)Nc2ccccc21 (configuration not stated)
3. CCCCC1NC(=O)c2ccccc2N1 (configuration not stated)
4. COc1cccc(/C=C/c2nc3ccccc3c(=O)[nH]2)c1
5. CC(C)(C)c1ccc(C2NC(=O)c3ccccc3N2)cc1 (configuration not stated)
6. O=C1NC(c2ccc3nsnc3c2)Nc2ccccc21 (configuration not stated)
7. O=C1NC(c2ccc([N+](=O)[O-])cc2)Nc2ccccc21 (configuration not stated)
8. COc1cc2c(c(OC)c1OC)-c1ccc(OC)c(=O)cc1[C@@H](NC(C)=O)CC2

1. 10
2. 72
3. 25
4. 78
5. 47
6. 22
7. 50
8. 34

Parameters: items (list). Returns: inhibition at 25 µM for each item.
1. COc1ccc(/C=C/c2nc3ccccc3c(=O)[nH]2)cc1
2. O=C1NC(CCc2ccccc2)Nc2ccccc21 (configuration not stated)
3. O=C1NC(c2ccc(O)cc2)Nc2ccccc21 (configuration not stated)

1. 41
2. 27
3. 90

Dear colleague, could you please provide inhibition at 25 µM for the compounds listed below?
1. O=C1NC(c2cc(O)c(O)c(O)c2)Nc2ccccc21 (configuration not stated)
2. O=C1NC(c2ccccc2C(=O)O)Nc2ccccc21 (configuration not stated)

[40, 20]

###

Tested on: HT-29
protocol_details: Antiproliferative activity against human HT-29 cells assessed as cell growth inhibition incubated for 72 hrs by MTT assay
Assay type: functional
So I've got a bunch of compounds here, and I need their log10 of GI50 values.
Please be aware that the numbers have been log10-transformed from GI50 in µM.

Illustrative cases are given below, each with its answer.
N#Cc1ccc2[nH]cc(-c3nc4ccccc4c(=O)[nH]3)c2c1 : 0.59
O=C1NC(c2cccc(O)c2)Nc2ccccc21 (stereo unspecified) : 0.80
O=C1NC(C2CC=CCC2)Nc2ccccc21 (stereo unspecified) : 0.73
O=C1NC(CCc2ccccc2)Nc2ccccc21 (stereo unspecified) : 0.54
O=c1[nH]c(/C=C/c2ccc(Br)cc2)nc2ccccc12 : 0.51

Note: attention shifts to another entry.
Memo: `Cc1ccc2[nH]cc(-c3nc4ccccc4c(=O)[nH]3)c2c1` , reported log10 of GI50: -0.41

###

protocol_details: Cytotoxicity against human MCF-10A cells assessed as cell growth inhibition at 25 uM incubated for 72 hrs by MTT assay relative to control
Type: toxicity, cell-based
Classification field: 1 (yes) = inhibition at 72 h, 25 µM at or over 50%; 0 (no) = inhibition at 72 h, 25 µM under 50%.

Would you please look over these solved cases?
O=C1NC(c2cc3ccccc3o2)Nc2ccccc21 (stereo not given) : 1 (yes)
O=C1NC(c2ccc3ccccc3c2)Nc2ccccc21 (stereo not given) : 1 (yes)
O=C(O)c1ccc(C2NC(=O)c3ccccc3N2)cc1 (stereo not given) : 0 (no)
O=C1NC(C2CCCCC2)Nc2ccccc21 (stereo not given) : 0 (no)
COc1ccc(/C=C/c2nc3ccccc3c(=O)[nH]2)cc1 : 1 (yes)
CC(C)(C)c1ccc(C2NC(=O)c3ccccc3N2)cc1 (stereo not given) : 1 (yes)
N#Cc1ccc(C2NC(=O)c3ccccc3N2)cc1 (stereo not given) : 0 (no)
O=C1NC(/C(Br)=C/c2ccccc2)Nc2ccccc21 (stereo not given) : 1 (yes)

Next item in the queue.
Is reported inhibition at 72 h, 25 µM greater than or equal to 50% here: O=C(O)c1cccc(C2NC(=O)c3ccccc3N2)c1 (stereo not given) 0 (no)

###

System: BE(2)-C
protocol_details: Antiproliferative activity against human BE2C cells assessed as cell growth inhibition incubated for 72 hrs by MTT assay
Assay type: functional
quantity_measured: GI50 (nM)
Numbers only, in nM.

O=c1[nH]c(/C=C/c2ccc(O)cc2)nc2ccccc12 : 250

Give GI50 for each listed item.
1. O=C1NC(c2ccc(Br)cc2)Nc2ccccc21 (stereo unspecified)
2. COC(=O)c1cccc(/C=C/c2nc3ccccc3c(=O)[nH]2)c1
3. COc1ccccc1/C=C/c1nc2ccccc2c(=O)[nH]1
4. O=C1NC(c2ccc([N+](=O)[O-])cc2)Nc2ccccc21 (stereo unspecified)
5. O=C1NC(/C(Br)=C/c2ccccc2)Nc2ccccc21 (stereo unspecified)
6. CC(C)(C)c1ccc(C2NC(=O)c3ccccc3N2)cc1 (stereo unspecified)
7. COc1cccc(/C=C/c2nc3ccccc3c(=O)[nH]2)c1

1: 2600; 2: 8500; 3: 310; 4: 10000; 5: 10000; 6: 20000; 7: 2100

Please state GI50 for every molecule in the list that follows.
1. Cc1ccc(C2NC(=O)c3ccccc3N2)cc1 (stereo unspecified)
2. O=C1NC(c2cccc(C(F)(F)F)c2)Nc2ccccc21 (stereo unspecified)
3. O=C1NC(c2cccc(Br)c2)Nc2ccccc21 (stereo unspecified)
4. O=c1[nH]c(/C=C/c2cccc(O)c2)nc2ccccc12
5. O=C1NC(c2ccccc2Br)Nc2ccccc21 (stereo unspecified)
6. CCCCCCCCC1NC(=O)c2ccccc2N1 (stereo unspecified)
7. O=C1NC(C2CC=CCC2)Nc2ccccc21 (stereo unspecified)

1900
3100
2400
1800
2500
9200
5700

###

protocol_details: Antiproliferative activity against human SJG2 cells assessed as cell growth inhibition at 25 uM incubated for 72 hrs by MTT assay relative to control
Format: functional
condition_set: SJ-G2
Short version: inhibition at 25 µM at least 60% is 1 (yes), less is 0 (no).

O=C1NC(c2cccnc2)Nc2ccccc21 (configuration not stated) : 0 (no)
O=C1NC(c2ccc(-c3ccccc3)cc2)Nc2ccccc21 (configuration not stated) : 1 (yes)
O=C1NC(c2cccc(Br)c2)Nc2ccccc21 (configuration not stated) : 1 (yes)

Quick check, inhibition at 25 µM >= 60%? `CCCC/C=C/c1nc2ccccc2c(=O)[nH]1` 0 (no)

Is inhibition at 25 µM at least 60%? Consider O=C1NC(c2ccc(Br)cc2)Nc2ccccc21 (configuration not stated) 1 (yes)

Answer whether inhibition at 25 µM of N#Cc1cccc(C2NC(=O)c3ccccc3N2)c1 (configuration not stated) is greater than or equal to 60%. 0 (no)

Would you say `Cc1ccc(/C=C/c2nc(O)c3ccccc3n2)cc1` shows inhibition at 25 µM at minimum 60%? 0 (no)

Is inhibition at 25 µM for O=C1NC(c2c[nH]c3ccccc23)Nc2ccccc21 (configuration not stated) at or above 60%? 1 (yes)

Identify whether the reported inhibition at 25 µM of the following compound is 60% or greater: CCCCC1NC(=O)c2ccccc2N1 (configuration not stated) 0 (no)

Confirm if inhibition at 25 µM reported for the compound `COc1ccccc1/C=C/c1nc2ccccc2c(=O)[nH]1` is 60% or above. 1 (yes)

###

protocol_details: Antiproliferative activity against human SJG2 cells assessed as cell growth inhibition at 25 uM incubated for 72 hrs by MTT assay relative to control
Assay type: functional
condition_set: SJ-G2
Give inhibition at 25 µM for every item shown.
Answers are plain numbers, in %.

O=C(O)c1ccc(C2NC(=O)c3ccccc3N2)cc1 (stereo unspecified) : 10
O=C1NC(c2cccc([N+](=O)[O-])c2)Nc2ccccc21 (stereo unspecified) : 61
COc1ccc(/C=C/c2nc3ccccc3c(=O)[nH]2)cc1 : 89
COc1cc2c(c(OC)c1OC)-c1ccc(OC)c(=O)cc1[C@@H](NC(C)=O)CC2 : 47

inhibition at 25 µM measured on CCCCCCCCC1NC(=O)c2ccccc2N1 (stereo unspecified) = 77

###

System: A2780
protocol_details: Antiproliferative activity against human A2780 cells assessed as cell growth inhibition at 25 uM incubated for 72 hrs by MTT assay relative to control
Assay type: functional
# inhibition at 25 µM >= 60% gives Fulfilled, anything below gives Not fulfilled

O=C1NC(c2ccc(O)cc2)Nc2ccccc21 (stereo unspecified) : Fulfilled

Evaluate O=C1NC(c2cccnc2)Nc2ccccc21 (stereo unspecified) : inhibition at 25 µM at minimum 60%? Not fulfilled

Test whether the compound Cc1ccc(C2NC(=O)c3ccccc3N2)cc1 (stereo unspecified) records inhibition at 25 µM of 60% or higher. Fulfilled

Has `O=c1[nH]c(/C=C/c2ccc(Br)cc2)nc2ccccc12` a recorded inhibition at 25 µM greater than or equal to 60%? Fulfilled

For this compound, is measured inhibition at 25 µM 60% or higher? O=C1NC(CCc2ccccc2)Nc2ccccc21 (stereo unspecified) Not fulfilled

Could you tell me if the measured inhibition at 25 µM of `Cc1ccc(/C=C/c2nc(O)c3ccccc3n2)cc1` reaches 60% or more? Fulfilled
